Target: Hypoxia-inducible factor 1-alpha (Homo sapiens) (UniProt Q16665)
Sequence (Q16665 whole entry, looked up): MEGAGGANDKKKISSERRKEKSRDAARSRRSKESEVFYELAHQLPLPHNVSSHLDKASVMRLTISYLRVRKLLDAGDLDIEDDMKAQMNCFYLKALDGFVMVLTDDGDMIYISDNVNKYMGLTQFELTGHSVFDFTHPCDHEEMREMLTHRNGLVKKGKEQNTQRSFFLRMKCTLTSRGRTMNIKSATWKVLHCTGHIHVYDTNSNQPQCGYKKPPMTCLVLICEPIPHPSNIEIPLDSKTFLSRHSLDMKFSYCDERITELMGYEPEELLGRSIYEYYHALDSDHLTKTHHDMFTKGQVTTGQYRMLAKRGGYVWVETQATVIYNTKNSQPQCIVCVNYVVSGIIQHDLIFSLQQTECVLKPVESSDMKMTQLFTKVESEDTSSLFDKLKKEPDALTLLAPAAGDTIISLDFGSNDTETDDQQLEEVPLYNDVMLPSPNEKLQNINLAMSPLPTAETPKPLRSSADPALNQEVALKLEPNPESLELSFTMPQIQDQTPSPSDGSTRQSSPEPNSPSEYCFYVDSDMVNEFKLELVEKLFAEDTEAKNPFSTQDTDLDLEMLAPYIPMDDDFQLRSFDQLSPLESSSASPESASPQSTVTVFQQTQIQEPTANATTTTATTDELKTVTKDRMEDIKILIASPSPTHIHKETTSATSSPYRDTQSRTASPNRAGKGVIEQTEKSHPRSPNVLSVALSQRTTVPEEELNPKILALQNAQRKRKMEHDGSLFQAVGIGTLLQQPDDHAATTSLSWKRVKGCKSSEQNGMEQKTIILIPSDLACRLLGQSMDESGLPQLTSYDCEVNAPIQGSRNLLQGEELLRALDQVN
Assay: activators of HIF1alpha nuclear accumulation, confirmation, imaging, fluorescence, U2OS GFP-HIF1alpha (AID 434951)
Conditions: U2OS GFP-HIF1alpha nuclear intensity, high-content imaging
Activity calls are given as the source filed them.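 How the source made its calls: active means a fitted half-maximal concentration EC50 for the rise in nuclear signal no higher than ten times the top dose tested; inconclusive means flat fit with activity between 30% and 70%, or unusable fit; inactive means EC50 beyond ten times the top dose.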
Can you answer with just one of these options? TRUE for active, FALSE for inactive

Asked: In this assay, the call recorded for N#C/C(=C(/O)c1ccc(F)cc1)c1nc2ccccc2s1 was what?
Given back: FALSE

Asked: Per the assay record, what outcome was assigned to O=C1CCCC2=C1C(Cc1ccccc1)C1=C(CCCC1=O)O2 ?
Given back: FALSE

Asked: What was the test verdict on O=C(CSc1ccc(-c2ccccn2)nn1)Nc1nccs1 ?
Given back: TRUE

Asked: Just curious, what result did COc1cccc(/C=N/Nc2nc3ccccc3[nH]2)c1O get here?
Given back: TRUE

Asked: What was the test verdict on CCOC(=O)C(=Cc1ccc(OCc2ccc([N+](=O)[O-])cc2)c(OC)c1)C(=O)OCC ?
Given back: TRUE

Asked: Status in this test for O=C(/C=C/c1cn(-c2ccccc2)nc1-c1ccccc1)Nc1ccc(C(=O)O)cc1 ?
Given back: FALSE

Asked: // return assay outcome for CC1CCN(Cc2nnnn2CCCC(=O)NCCc2cnn(C)c2)CC1
Given back: FALSE

Asked: Which outcome did this test record for the compound Cc1cccc(CCNC(=O)Cn2ncc3c([nH]c4ccc(C)cc43)c2=O)c1 ?
Given back: FALSE

Asked: Outcome logged for Cc1snc(SCC(=O)N/N=C(\N)COc2cccc(C(F)(F)F)c2)c1C#N in this assay:
Given back: TRUE

Asked: // outcome(item) with item = CCN(CC)CCNCc1nc2ccccc2c(=O)n1-c1ccc(F)cc1
Given back: FALSE

Asked: Identify the outcome logged in this assay for the compound shown: CC(=O)Nc1ccc2c(c1)CCCC2=O
Given back: FALSE
